Value source: ChEMBL document CHEMBL1154464

- assay.name: Blockade of Nav1.4 sodium channel in frog semitendinosus muscle fibres assessed as phasic block at 10 Hz stimulation frequency by vaseline-gap voltage clamp method
- Assay type: tissue-based, Pelophylax lessonae
pIC50: −log10 of the molar value.
attribute.measured: pIC50

compound	pIC50
Cc1cccc(C)c1NC(=O)C1CCCN(Cc2ccccc2)C1 (stereo not drawn)	5.35

1. Cc1cccc(C)c1NC(=O)C(C)N (stereo not drawn) [TOCAINIDE]
2. Cc1cccc(C)c1NC(=O)C1CN(Cc2ccccc2)CCN1 (stereo not drawn)
Could you tell me which of 1 and 2 has the lower pIC50 reading? Answer with the label corresponding to your selection.
1
(1: 3.56, 2: 5.62)
